Source: paper PMC10216335

- TEST_TARGET: NaV1.7 (Rattus norvegicus, UniProt O08562)
- Construct: rat cDNA NaV1.7 (GenBank No. U79568), transiently expressed in HEK-293 cells
- Sequence (O08562 whole entry): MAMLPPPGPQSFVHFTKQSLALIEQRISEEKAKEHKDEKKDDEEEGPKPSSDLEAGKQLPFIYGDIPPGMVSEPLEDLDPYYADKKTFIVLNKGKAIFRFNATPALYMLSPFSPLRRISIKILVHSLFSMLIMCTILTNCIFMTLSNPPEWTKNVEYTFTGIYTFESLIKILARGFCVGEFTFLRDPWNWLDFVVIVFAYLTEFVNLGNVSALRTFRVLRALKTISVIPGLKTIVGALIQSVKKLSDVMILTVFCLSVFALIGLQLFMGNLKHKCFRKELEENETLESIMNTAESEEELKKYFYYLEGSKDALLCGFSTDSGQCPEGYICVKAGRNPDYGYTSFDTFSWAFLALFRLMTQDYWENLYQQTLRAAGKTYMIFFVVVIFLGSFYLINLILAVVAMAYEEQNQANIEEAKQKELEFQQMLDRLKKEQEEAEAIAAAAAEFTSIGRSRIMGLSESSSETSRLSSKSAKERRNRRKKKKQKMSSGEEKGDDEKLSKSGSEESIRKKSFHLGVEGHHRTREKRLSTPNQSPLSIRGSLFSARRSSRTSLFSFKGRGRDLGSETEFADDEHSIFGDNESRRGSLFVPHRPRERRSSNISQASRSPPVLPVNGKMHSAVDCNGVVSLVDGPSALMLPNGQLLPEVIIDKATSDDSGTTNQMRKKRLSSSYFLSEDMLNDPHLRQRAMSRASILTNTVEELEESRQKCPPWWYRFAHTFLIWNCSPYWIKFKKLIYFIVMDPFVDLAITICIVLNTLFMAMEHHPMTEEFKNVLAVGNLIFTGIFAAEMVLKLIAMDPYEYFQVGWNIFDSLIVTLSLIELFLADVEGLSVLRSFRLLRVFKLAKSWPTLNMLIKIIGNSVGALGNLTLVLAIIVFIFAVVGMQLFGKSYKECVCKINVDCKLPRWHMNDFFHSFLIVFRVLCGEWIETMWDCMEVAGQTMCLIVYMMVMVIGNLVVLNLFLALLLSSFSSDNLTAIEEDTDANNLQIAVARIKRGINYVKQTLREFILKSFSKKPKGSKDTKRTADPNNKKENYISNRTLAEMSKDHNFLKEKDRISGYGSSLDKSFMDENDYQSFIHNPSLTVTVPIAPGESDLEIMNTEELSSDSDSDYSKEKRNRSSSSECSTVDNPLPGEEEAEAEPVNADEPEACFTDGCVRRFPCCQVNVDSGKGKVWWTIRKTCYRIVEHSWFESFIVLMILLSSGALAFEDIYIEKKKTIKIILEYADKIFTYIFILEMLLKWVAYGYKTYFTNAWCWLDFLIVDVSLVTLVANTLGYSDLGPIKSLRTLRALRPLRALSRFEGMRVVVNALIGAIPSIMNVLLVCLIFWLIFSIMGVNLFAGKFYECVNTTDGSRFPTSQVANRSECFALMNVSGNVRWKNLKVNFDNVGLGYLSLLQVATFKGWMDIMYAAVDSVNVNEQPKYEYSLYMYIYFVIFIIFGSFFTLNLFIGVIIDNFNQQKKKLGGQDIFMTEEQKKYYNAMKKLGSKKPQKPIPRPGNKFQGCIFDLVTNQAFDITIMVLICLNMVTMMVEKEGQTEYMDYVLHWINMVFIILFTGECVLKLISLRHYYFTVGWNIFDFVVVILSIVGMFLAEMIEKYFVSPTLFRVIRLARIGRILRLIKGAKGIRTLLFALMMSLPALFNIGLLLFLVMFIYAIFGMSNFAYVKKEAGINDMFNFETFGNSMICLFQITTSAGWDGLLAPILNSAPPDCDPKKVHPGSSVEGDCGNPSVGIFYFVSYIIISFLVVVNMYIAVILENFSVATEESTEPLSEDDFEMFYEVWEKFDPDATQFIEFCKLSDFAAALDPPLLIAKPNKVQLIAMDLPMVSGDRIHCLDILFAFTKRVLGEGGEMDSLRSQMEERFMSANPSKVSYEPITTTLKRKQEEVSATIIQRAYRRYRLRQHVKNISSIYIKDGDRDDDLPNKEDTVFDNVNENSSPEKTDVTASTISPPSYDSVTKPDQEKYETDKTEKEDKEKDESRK
- RUN_DESCRIPTION: whole-cell patch-clamp, INa block in transfected HEK-293 cells
REPORTED_ENDPOINT: pIC50
Kindly note that pIC50 refers to -log10 of the concentration in mol/L and answer with the value alone.

Q) GET /values?readout=pIC50&item= c1ccc(C(CCCNCCCN2CCCCC2)c2ccccc2)cc1
A) 5.44
